The reported numbers originate from the supplement of paper PMC8967900.

system: RCH-ACV; assay: selective drug sensitivity score (sDSS, relative to normal bone marrow) (sDSS (score)); higher = more potent and effective on the cell line relative to normal bone marrow cells; settings: 72 h;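 further: ALL cell lines in 384-well plates, five doses spanning 10,000-fold, each plate scaled between vehicle and 100 µmol/L benzalkonium chloride controls, sDSS an adapted area-under-curve metric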
selective drug sensitivity score values for the compounds below.
Returns: the value as a bare number; no unit string appended.

Solved entries:
[
  {
    "compound": "FC(F)(F)c1ccc(CNc2ccc(Cc3c[nH]c4ncc(Cl)cc34)cn2)cn1 [Pexidartinib] (top concentration 10000 nM)",
    "reported-result": 1.58
  },
  {
    "compound": "COc1ccc(COc2cc3oc(=O)c4cc(C(C)O)ccc4c3cc2OC)cc1 (centres undefined) [Palomid-529] (top concentration 10000 nM)",
    "reported-result": -0.14
  },
  {
    "compound": "CC(=O)c1c(C)c2cnc(Nc3ccc(N4CCNCC4)cn3)nc2n(C2CCCC2)c1=O [Palbociclib] (top concentration 10000 nM)",
    "reported-result": 16.1
  }
]

Entry Cn1cnc2c(F)c(Nc3ccc(Br)cc3Cl)c(C(=O)NOCCO)cc21 [Selumetinib] (top concentration 10000 nM) has what selective drug sensitivity score?
-3.7

* * *

test system: NALL-1; experiment: selective drug sensitivity score (sDSS, relative to normal bone marrow) (sDSS (score)); higher = more potent and effective on the cell line relative to normal bone marrow cells; details: 72 h
This listing pairs compounds with measured selective drug sensitivity score.
Lab note: jot down the number only; don't add units.

Recorded results for 5 compounds are shown here.
[
  {
    "compound": "O=C(NCc1ccncc1)C12CC3CC(C1)CC(c1ccc(Cl)cc1)(C3)C2 (top concentration 50000 nM)",
    "target-or-test-system": "NALL-1",
    "reported-result": 3.58
  },
  {
    "compound": "C=CC(=O)Nc1cccc(Nc2nc(Nc3ccc(N4CCN(C(C)=O)CC4)cc3OC)ncc2C(F)(F)F)c1 [Rociletinib] (top concentration 10000 nM)",
    "target-or-test-system": "NALL-1",
    "reported-result": 3.14
  },
  {
    "compound": "COc1cc2c(Nc3ccc(Cl)c(Cl)c3F)ncnc2cc1OC[C@@H]1C[C@@H]2CN(C)C[C@@H]2C1 [Tesevatinib] (top concentration 1000 nM)",
    "target-or-test-system": "NALL-1",
    "reported-result": -0.06
  },
  {
    "compound": "COc1cc(Nc2ncc(F)c(Nc3ccc4c(n3)NC(=O)C(C)(C)O4)n2)cc(OC)c1OC [Tamatinib] (top concentration 10000 nM)",
    "target-or-test-system": "NALL-1",
    "reported-result": -3.82
  },
  {
    "compound": "CC(C)[C@@H](CS(=O)(=O)C(C)C)N1C(=O)[C@@](C)(CC(=O)O)C[C@H](c2cccc(Cl)c2)[C@H]1c1ccc(Cl)cc1 [AMG-232] (top concentration 10000 nM)",
    "target-or-test-system": "NALL-1",
    "reported-result": -8.14
  }
]

Please provide the recorded selective drug sensitivity score for Cc1ccc(-n2nc(C(C)(C)C)cc2NC(=O)Nc2ccc(OCCN3CCOCC3)c3ccccc23)cc1 [Doramapimod] (top concentration 10000 nM) , tested on NALL-1.
-0.24

Find selective drug sensitivity score (NALL-1) for the entry CC[C@@H]1[C@H](F)C(=O)N[C@@H]1COc1nccc2cc(C(N)=O)c(OC)cc12 (top concentration 10000 nM)
-1.32

Record lookup: for NALL-1, what selective drug sensitivity score belongs to CC1(C)C(C(=O)Nc2ccc(S(=O)(=O)c3ccc(NC(=O)C4C(C)(C)C4(C)C)cc3)cc2)C1(C)C [BRD7116] (top concentration 10000 nM) ?
-0.24

Under NALL-1: selective drug sensitivity score value of Nc1cc(C(F)(F)F)c(-c2cc(N3CCOCC3)nc(N3CCOCC3)n2)cn1 [Buparlisib] (top concentration 10000 nM) ?
1.28

Short answer please: selective drug sensitivity score, NALL-1, entry CC(C)C[C@H](NC(=O)[C@@H](COC(C)(C)C)NC(=O)[C@H](Cc1ccc(O)cc1)NC(=O)[C@H](CO)NC(=O)[C@H](Cc1c[nH]c2ccccc12)NC(=O)[C@H](Cc1cnc[nH]1)NC(=O)[C@@H]1CCC(=O)N1)C(=O)N[C@@H](CCCNC(=N)N)C(=O)N1CCC[C@H]1C(=O)NNC(N)=O [Goserelin] (top concentration 10000 nM)
-0.06

Give recorded selective drug sensitivity score with NALL-1 for the following compound: NC1(c2ccc(-c3nc4ccn5c(=O)[nH]nc5c4cc3-c3ccccc3)cc2)CCC1 [MK-2206] (top concentration 1000 nM)
6.26

* * *

system: MHH-CALL-3; assay: selective drug sensitivity score (sDSS, relative to normal bone marrow) (sDSS (score)); higher = more potent and effective on the cell line relative to normal bone marrow cells; settings: 72 h
Entries and their selective drug sensitivity score values follow.
Answer with the value's number alone.

[
  {
    "compound": "C=CC(=O)Nc1cccc(Nc2nc(Nc3ccc(N4CCN(C(C)=O)CC4)cc3OC)ncc2C(F)(F)F)c1 [Rociletinib] (top concentration 10000 nM)",
    "reported-result": -1.06
  },
  {
    "compound": "CC1(C)C(C(=O)Nc2ccc(S(=O)(=O)c3ccc(NC(=O)C4C(C)(C)C4(C)C)cc3)cc2)C1(C)C [BRD7116] (top concentration 10000 nM)",
    "reported-result": -0.24
  },
  {
    "compound": "CCOc1ccn(-c2ccc(F)cc2)c(=O)c1C(=O)Nc1ccc(Oc2ccnc(N)c2Cl)c(F)c1 (top concentration 2500 nM)",
    "reported-result": 0
  }
]

# input compound: O=C(Nc1c[nH]nc1-c1nc2ccc(CN3CCOCC3)cc2[nH]1)NC1CC1 [AT9283] (top concentration 1000 nM) ; wanted: its selective drug sensitivity score
10.4

Looking for the measured selective drug sensitivity score of NC(=O)N1CCC(CC(=O)N2CCC([C@H]3c4ncc(Br)cc4CCc4cc(Cl)cc(Br)c43)CC2)CC1 [Lonafarnib] (top concentration 100000 nM) , can you help?
4.54

Given the entry Cc1nc(Nc2n[nH]c3c2CN(C(=O)N[C@H](CN(C)C)c2ccccc2)C3(C)C)c2sccc2n1 (top concentration 10000 nM) , report its measured selective drug sensitivity score.
0.18

* * *

The molecules listed here are annotated with their selective drug sensitivity score.
test system: TMD5; experiment: selective drug sensitivity score (sDSS, relative to normal bone marrow) (sDSS (score)); higher = more potent and effective on the cell line relative to normal bone marrow cells; settings: 72 h

[
  {
    "molecule": "CNC(=O)[C@@H](NC(=O)[C@H](CC(C)C)[C@H](O)C(=O)NO)C(C)(C)C [Marimastat] (top concentration 10000 nM)",
    "selective drug sensitivity score": 3.72
  },
  {
    "molecule": "CNC(=O)c1cccc(-c2ccc3c(N4CCOC[C@@H]4C)nc(N4CCOC[C@@H]4C)nc3n2)c1 [Vistusertib] (top concentration 10000 nM)",
    "selective drug sensitivity score": 3.02
  }
]

Next:
Sample Clc1ccc(C(c2ccccc2Cl)C(Cl)Cl)cc1 (stereo not drawn) [Mitotane] (top concentration 10000 nM) — what was its selective drug sensitivity score?
-0.08

* * *

test system: MN-60; test: selective drug sensitivity score (sDSS, relative to normal bone marrow) (sDSS (score)); higher = more potent and effective on the cell line relative to normal bone marrow cells; details: 72 h
Recorded selective drug sensitivity score for the following compounds
# answer = number (no unit)

# count of solved cases: 3
[
  {
    "compound": "CC(O)c1cc(C(=O)N[C@@H](C)Cn2ccc(-c3ccc(C#N)c(Cl)c3)n2)n[nH]1 (some centres undefined) [ODM-201] (top concentration 2500 nM)",
    "target-or-test-system": "MN-60",
    "measure-name": "selective drug sensitivity score",
    "reported-result": -0.28
  },
  {
    "compound": "C[C@H](Nc1ncnc2nc[nH]c12)c1cc2cccc(Cl)c2c(=O)n1-c1ccccc1 [Duvelisib] (top concentration 500 nM)",
    "target-or-test-system": "MN-60",
    "measure-name": "selective drug sensitivity score",
    "reported-result": -0.94
  },
  {
    "compound": "COc1c(C)cnc(Cn2cnc3c(Cl)nc(N)nc32)c1C [BIIB021] (top concentration 10000 nM)",
    "target-or-test-system": "MN-60",
    "measure-name": "selective drug sensitivity score",
    "reported-result": -2.62
  }
]

Given CC[C@@H]1[C@H](F)C(=O)N[C@@H]1COc1nccc2cc(C(N)=O)c(OC)cc12 (top concentration 10000 nM) , state its recorded selective drug sensitivity score.
5.88

* * *

test system: ALL-PO; assay: selective drug sensitivity score (sDSS, relative to normal bone marrow) (sDSS (score)); higher = more potent and effective on the cell line relative to normal bone marrow cells; conditions: 72 h
measure-name: selective drug sensitivity score
Lab note: record just the number, no unit beside it.

[
  {
    "molecule": "COc1cc(N2CCN(C)CC2)ccc1Nc1nccc(-c2cn(C)c3cnccc23)n1 [AZ191] (top concentration 10000 nM)",
    "selective drug sensitivity score": 3.58
  },
  {
    "molecule": "NC1(C(=O)N[C@@H](CCO)c2ccc(Cl)cc2)CCN(c2ncnc3[nH]ccc23)CC1 [AZD-5363] (top concentration 10000 nM)",
    "selective drug sensitivity score": 5.82
  }
]

Item CCCCCCCCc1ccc(CCC(N)(CO)CO)cc1 [Fingolimod] (top concentration 10000 nM) has what recorded selective drug sensitivity score?
2.28

Reported selective drug sensitivity score for C[C@@H]1CCN(C(=O)CC#N)C[C@@H]1N(C)c1ncnc2[nH]ccc12 [Tofacitinib] (top concentration 5000 nM) : what is it?
-7.86

Need selective drug sensitivity score of N#CC1(c2ccc(NC(=O)c3cccnc3NCc3ccncc3)cc2)CCCC1 [Apatinib] (top concentration 10000 nM) , thanks.
2.4

Look at this molecule and give its reported selective drug sensitivity score. C=CC(=O)Nc1cccc(Oc2nc(Nc3ccc(N4CCN(C)CC4)cc3)nc3ccsc23)c1 [Olmutinib] (top concentration 1000 nM)
-0.02

Find the recorded selective drug sensitivity score belonging to COc1cc(Nc2ncc3c(n2)-c2ccc(Cl)cc2C(c2c(F)cccc2OC)=NC3)ccc1C(=O)O [Alisertib] (top concentration 10000 nM) and report it.
15.6

What does the data say about its selective drug sensitivity score? Entry: CC(C)(C)Cn1c(N)nc2ccc(-c3[nH]c(C(C)(C)C)nc3-c3ccc(F)cc3)nc21 [Ralimetinib] (top concentration 10000 nM)
8.56

What value of selective drug sensitivity score has been recorded for this entry: Nc1cc(F)ccc1NC(=O)c1ccc(CNC(=O)/C=C/c2cccnc2)cc1 [Tucidinostat] (top concentration 10000 nM)
2.94
